molecular target: T1, Mcl-1 (biotinylated pro-survival Bcl-2 family protein) (UniProt Q07820 171-327, limits assumed, biotinylated (co-expressed E. coli biotin ligase BirA)); test: flow cytometry of E. coli displaying the peptide on eCPX, biotinylated target + streptavidin-PE; apparent Kd
T1 construct: In the functional rows the target is the endogenous Mcl-1 of the human cancer cell lines
T1 sequence (Q07820 171-327 limits assumed): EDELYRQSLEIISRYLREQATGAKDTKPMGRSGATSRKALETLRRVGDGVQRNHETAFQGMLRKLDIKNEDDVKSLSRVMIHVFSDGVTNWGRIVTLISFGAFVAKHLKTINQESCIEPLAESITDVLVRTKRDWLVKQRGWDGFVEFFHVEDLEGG
Where no end group is shown, it is not given here. eCPX = enhanced circularly permuted OmpX display scaffold; linker = not defined here
MEASUREMENT_KIND: pKd
In plain terms, pKd is the concentration in mol/L turned into minus its base-10 logarithm.

BINDER	MEASUREMENT_KIND	OBSERVED_MEASUREMENT
WMAQILRRIGDEVN-{linker-eCPX} (reading uncertain; also: printed as Trp-Met-Ala-Gln-Ile-Leu-Arg-Arg-Ile-Gly-Asp-Glu-Val-Asn, Clone selected against Mcl-1; not shown: eCPX display scaffold and its linker, fused C-terminal to the peptide) [Bim BH3 14-mer variant M2-3 displayed on eCPX]	pKd	7.94

The record that follows has no pKd shown yet.
Ask: I have this binder here, WLAQLLRRIGDEIN-{linker-eCPX} (reading uncertain; also: printed as Trp-Leu-Ala-Gln-Leu-Leu-Arg-Arg-Ile-Gly-Asp-Glu-Ile-Asn, Clone selected against Mcl-1; not shown: eCPX display scaffold and its linker, fused C-terminal to the peptide) [Bim BH3 14-mer variant M2-4 displayed on eCPX] , and I need its recorded pKd.
Result: 8.01

Where do the numbers come from? From patent US20150045310A1.
